# Target or system: T1, mouse GLP-1 receptor endogenously expressed in βTC6 cells (mouse, UniProt O35659 22-463)
# T1 sequence (looked up): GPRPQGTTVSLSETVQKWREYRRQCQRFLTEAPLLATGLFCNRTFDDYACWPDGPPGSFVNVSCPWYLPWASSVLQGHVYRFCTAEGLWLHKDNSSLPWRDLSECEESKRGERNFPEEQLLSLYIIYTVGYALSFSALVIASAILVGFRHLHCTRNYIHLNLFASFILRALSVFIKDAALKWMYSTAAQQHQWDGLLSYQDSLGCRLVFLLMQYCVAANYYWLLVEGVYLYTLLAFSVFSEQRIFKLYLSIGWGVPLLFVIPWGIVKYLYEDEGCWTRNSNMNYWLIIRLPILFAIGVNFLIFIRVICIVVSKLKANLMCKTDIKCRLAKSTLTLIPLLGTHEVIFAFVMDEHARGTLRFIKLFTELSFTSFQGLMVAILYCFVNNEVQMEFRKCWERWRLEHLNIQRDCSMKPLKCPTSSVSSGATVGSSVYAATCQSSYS
# Method description: cell-based or functional assay
Numbered stars: 1 amine (or outer) side, 2 acyl side, 3 side chain; on linkers, the order of the positions; unused ones are H or OH. Square brackets hold non-standard residues; d marks the D form. Ends that are not written are not given here. A^u = urea/ureido (oligourea) residue with alanine side chain, C[C@@H](CNC(=O)[*:2])N[*:1]; Au = A^u, ureido (oligourea) alanine residue, C[C@@H](CNC(=O)[*:2])N[*:1]; E^u = urea/ureido residue with glutamic acid side chain
// values below are reported EC50 (nM), cAMP production functional assay
Measured parameter: EC50 (nM), cAMP production functional assay

{"Binder": "HGEGTFTSDVSSYLEGQAAKEFIXXXKGRG (ureido (oligourea) residues A^u A^u A^u at positions 24-26 of the hybrid, replacing residues 24-27 of GLP-1-G2; C-terminal amide) [GG2[A^UA^UA^U]^24-27]", "Result": "> 10000 nM"}
{"Binder": "H-HGEGTFTSDVS[Au][Au][Au]GQAAKEFIAWLVKGRG-NH2 (also: oligourea (urea) backbone at A^u units) [GG2[A^UA^UA^U]^12-15]", "Result": "> 10000 nM"}
{"Binder": "HGEGTFTSDVSSYL[E^u][A^u][A^u]AKEFIAWLVKGRG-NH2 [GG2[E^UA^UA^U]^15-18]", "Result": "1.9 nM"}
